Biological target: S1P1 (membranes prepared from S1P1/CHO cells) (Homo sapiens (Human), UniProt P21453)
Sequence (P21453 whole entry): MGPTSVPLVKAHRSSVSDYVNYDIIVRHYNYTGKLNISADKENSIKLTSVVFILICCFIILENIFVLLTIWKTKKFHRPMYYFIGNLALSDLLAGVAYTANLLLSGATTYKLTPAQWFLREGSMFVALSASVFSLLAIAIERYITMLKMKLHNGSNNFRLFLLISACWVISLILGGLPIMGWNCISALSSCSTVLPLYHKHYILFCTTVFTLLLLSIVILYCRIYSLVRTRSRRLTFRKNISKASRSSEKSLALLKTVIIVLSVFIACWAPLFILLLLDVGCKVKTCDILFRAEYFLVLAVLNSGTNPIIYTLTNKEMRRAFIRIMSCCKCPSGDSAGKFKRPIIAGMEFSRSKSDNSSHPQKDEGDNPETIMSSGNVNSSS
Assay: Receptor [35S] GTPγS binding assay (S1P1 GTPγS)
Format: biochemical
Conditions: phosphate examples; read-out: S1P1 GTPγS
pEC50: −log10 of the molar value.
We begin with a simple list: items and their reported pEC50.
Observation Type: pEC50

INSERT INTO assay_data (compound, assayed_system, observation_type, reported_result) VALUES
  ('N[C@]1(COP(=O)(O)O)CC[C@H](c2ccc3c(c2)CC[C@H](CS(=O)(=O)c2ccccc2)C3)C1 [compound 618]', 'S1P1 (membranes prepared from S1P1/CHO cells) (Homo sapiens (Human), UniProt P21453)', 'pEC50', '6.00 to 7.00'),
  ('COc1ccc(SC[C@@H]2CCc3cc([C@H]4CC[C@](N)(COP(=O)(O)O)C4)ccc3C2)cc1OC [compound 531]', 'S1P1 (membranes prepared from S1P1/CHO cells) (Homo sapiens (Human), UniProt P21453)', 'pEC50', '7.00 to 8.00'),
  ('COCCC/C=C/[C@@H]1CCc2cc([C@H]3CC[C@](N)(COP(=O)(O)O)C3)ccc2C1 [compound 640]', 'S1P1 (membranes prepared from S1P1/CHO cells) (Homo sapiens (Human), UniProt P21453)', 'pEC50', '> 8.00'),
  ('N[C@]1(COP(=O)(O)O)CC[C@H](c2ccc3c(c2)CC[C@@H](CSCCc2ccccc2)C3)C1 [compound 522]', 'S1P1 (membranes prepared from S1P1/CHO cells) (Homo sapiens (Human), UniProt P21453)', 'pEC50', '7.00 to 8.00'),
  ('COc1ccc(OC[C@@H]2CCc3cc([C@H]4CC[C@](N)(COP(=O)(O)O)C4)ccc3C2)c(F)c1F [compound 494]', 'S1P1 (membranes prepared from S1P1/CHO cells) (Homo sapiens (Human), UniProt P21453)', 'pEC50', '7.00 to 8.00'),
  ('CC(C)CSCC[C@@H]1CCc2cc([C@H]3CC[C@](N)(COP(=O)(O)O)C3)ccc2C1 [compound 538]', 'S1P1 (membranes prepared from S1P1/CHO cells) (Homo sapiens (Human), UniProt P21453)', 'pEC50', '> 8.00'),
  ('CCCC[C@@H]1CCCC2(CCc3cc([C@H]4CC[C@](N)(COP(=O)(O)O)C4)ccc3C2)O1 (some centres unmarked) [compound 633]', 'S1P1 (membranes prepared from S1P1/CHO cells) (Homo sapiens (Human), UniProt P21453)', 'pEC50', '6.00 to 7.00'),
  ('Cc1cccc(OC[C@@H]2CCc3cc([C@H]4CC[C@](N)(COP(=O)(O)O)C4)ccc3C2)c1 [compound 470]', 'S1P1 (membranes prepared from S1P1/CHO cells) (Homo sapiens (Human), UniProt P21453)', 'pEC50', '7.00 to 8.00'),
  ('CCCCCO[C@@H]1CCc2cc([C@H]3CC[C@](N)(COP(=O)(O)O)C3)ccc2C1 [compound 430]', 'S1P1 (membranes prepared from S1P1/CHO cells) (Homo sapiens (Human), UniProt P21453)', 'pEC50', '7.00 to 8.00'),
  ('N[C@]1(COP(=O)(O)O)CC[C@H](c2ccc3c(c2)CC[C@H](c2ccccc2)C3)C1 [compound 569]', 'S1P1 (membranes prepared from S1P1/CHO cells) (Homo sapiens (Human), UniProt P21453)', 'pEC50', '7.00 to 8.00'),
  ('COCCC/C=C/[C@H]1CCc2cc([C@H]3CC[C@](N)(COP(=O)(O)O)C3)ccc2C1 [compound 638]', 'S1P1 (membranes prepared from S1P1/CHO cells) (Homo sapiens (Human), UniProt P21453)', 'pEC50', '7.00 to 8.00');
